Each record here notes measured TGI.
System: K-562 leukemia
Assay: NCI tumour cell line growth inhibition, 48 h
ASSAY READOUT: TGI

{"MOLECULE": "CC1(C)[C@@H]2C[C@H]1c1cnc(-c3ccccn3)cc1[C@H]2C(O)[C@@H]1c2cc(-c3ccccn3)ncc2[C@H]2C[C@@H]1C2(C)C (some centres undefined)", "ASSAY READOUT": "TGI", "MEAS VALUE": "> 52 µM"}
{"MOLECULE": "COC1OC2COC(C)(C)OC2C2OC(C)(C)OC12 (centres undefined)", "ASSAY READOUT": "TGI", "MEAS VALUE": "> 100 µM"}
{"MOLECULE": "COC(=O)NC/C=C\\c1nc(CC/C=C\\C(=O)OC2CC3CC(=O)O[C@@H](/C=C/CC(C)C)C[C@@H]4CCC(C)C(C[C@@H](OC)CC(C2)O3)O4)co1 (some centres undefined)", "ASSAY READOUT": "TGI", "MEAS VALUE": "12.2 µM"}
{"MOLECULE": "CC1(C)CCc2cc3c(cc2O1)OCCC3=O", "ASSAY READOUT": "TGI", "MEAS VALUE": "> 100 µM"}
